test system: K4 kissing-loop RNA reporter; assay: apparent KD of K4 kissing-loop reporter; higher = weaker reporter binding; conditions: Eterna round: R107; input ligand: tryptophan 2.4 mM;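 further: bound reporter read as fluorescence of individual clusters on recovered sequencing chips by microscopy, with normalized cluster intensities fitted with a binding model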
Threshold check on apparent KD of K4 kissing-loop reporter: at or above 100 nM gives TRUE, strictly below gives FALSE.

Previously resolved entries follow.
residue-sequence	study-target	assigned-class
AGGGAUGUUAAAGGAUAUAGAAAGUGAUGUUAGAAAGUGAGUGAUGUUGAUGUAAGUGAUGAUAUGUUAGAAGGUUAACAAAACG [abc]	K4 kissing-loop RNA reporter	TRUE
AAUUUGGGUUCGGCCGCCACUCCAGUGAUGUUGGAUGGCGAAAUAAAGGCUAGACCAGGUUGCCGGAGGACCGGGAAUCCUGUAC [Qumabi]	K4 kissing-loop RNA reporter	TRUE
UGACUGGACUGAAGGAGCGCGCGAGACAAAGUCUCGAACUGGUAGUGAUGUUAUCAAAUAACGCAGGUAGGUCGCAGUCUAGUCU [ArgBS 12 #SwitchBubble #StaticStem]	K4 kissing-loop RNA reporter	TRUE
AGGAUCGAAGAUCCAGCAGUCAAGCAAUACCGAGGACCGGUACGGCCGCCACUCGGAGUGAUGUUCCGAAGACUGCAAAAUAAAA [#SwitchBubble 8]	K4 kissing-loop RNA reporter	FALSE
AAUAAUCUAGGUGAUACCAGCUCAACAUGAGUGAUGUUCGUGAGCUAAUGUAGAGUUGAGAGCCCUUGGCAGCACCUAGAUAAUA [KL-SSTheoB7]	K4 kissing-loop RNA reporter	TRUE
GGCGGCCGCGCGCAAGCGCGGCCGGCCGAUACCAGCGCGACGGCGCGCCCUUGGCAGCGGCGCCGAGUGAUGUUCGGCCUGCCGG [#2 Same State - Theophylline A Attempt #16 (HarryS)]	K4 kissing-loop RNA reporter	TRUE

# bool: apparent KD of K4 kissing-loop reporter of UGUACCGAGUCAGGAUAUGGCCGGAAACGGAAUAACCAGUGAUGUUGGAAUAAAUGGCGAAAGCCUCCAGAAGGGACUUGGUACU [FmnBS 18 #SwitchBubble #StaticStem #DoubleMagnetSystem] >= 100 nM TRUE

Does AGUGUGCAAAAGCACACUCAGAACAAGGACAAGGAUAUCUACUAAUAGAGAAGGUGUCCUUUCCUUAGUGAUGUUAAGGAACUGA [Omei KL FMN A SS D v5] have a reported apparent KD of K4 kissing-loop reporter of at least 100 nM? TRUE

Record AAGCAGUCACUCGACGCCAUCGAAGAUGGGCGAGGACCGGUACGGCCGCCACUCGGAGUGAUGUUCUGAUGACUGCAAAAUAAAA [MatMod 8 - Jieux - Exclusion - Tryptophan A] ; criterion: apparent KD of K4 kissing-loop reporter no lower than 100 nM. Met? FALSE

Decide: is the reported value of apparent KD of K4 kissing-loop reporter for UGUACCGAGUCAGGAUAUCAUAAUAAAUGCAGUGAUGUUGCAAUAACCAGUACAAAAGUGCUGGAUUGAGAAGGGACUUGGUACU [FmnBS 5 #SwitchBubble #StaticStem] equal to or greater than 100 nM? TRUE

Answer whether apparent KD of K4 kissing-loop reporter of AGCAUUUUCAGAAGGAGCGUGAAUUAUUCUUAAGUAUAUUAUACGAGUGAUGUUCGUAUUUCACAGGUAGGUCGCUGAUAUAGCA [JR_SSArginiB_Sub003] is greater than or equal to 100 nM. FALSE
